molecular target: AMPA receptors; assay: AMPA receptor binding affinity (Honore et al.); conditions: Table 2, cyclopentyl-fused analogs
Test Readout: IC50 (µM)
Output spec: scalar in µM, unitless text.

Query: Quote IC50 reported for O=C(CN(CCO)CCO)NC1Cc2c([N+](=O)[O-])cc3[nH]c(=O)c(=O)[nH]c3c2C1 (stereo not drawn) please.
Reply: 1.1

Query: Report IC50, nothing else, for this compound: O=C(NC1Cc2c([N+](=O)[O-])cc3[nH]c(=O)c(=O)[nH]c3c2C1)c1ccoc1 (stereo not drawn)
Reply: 0.14

Query: Recall and state the measured IC50 for O=c1[nH]c2cc([N+](=O)[O-])c3c(c2[nH]c1=O)CC(N1CCCC1)C3 (stereo not drawn) .
Reply: 1.5
